Form field: SPOT peptide array binding signal intensity (one value per entry).
# assayedSystem: ScLsb2
# assayProcedure: SPOT peptide array binding signal intensity (averaged, normalized) (arbitrary units (background-subtracted, floor 0; scale differs between SH3 domains)); higher = stronger binding of the SH3 domain to the peptide
assayReadout: SPOT peptide array binding signal intensity

> print(dat)
             binder  censoringqualifier  measurement
 1  QTREPNEPPPPSPAM                   ≤            0
 2  FPGKKSPRLPHRNKK                   =          0.5
 3  RRRIAYPFYPFKKLG                   =            4
 4  KRKRFNLLLPKPYLT                   =          8.5
 5  RRSKSLPTTPGIRSG                   =            6
 6  KRNRLKILLPFLEQS                   =            5
 7  LLGRKRPVMERVVDI                   ≤            0
 8  RRTRLRPPTPLSQLL                   =          5.5
 9  HRRRRVFSIPSLKSI                   =         12.5
10  QRIRKIPGIPLMSVG                   =           13
11  ISPPASPPPEFDFSK                   ≤            0
12  TTNRGPPPLPPRANV                   =          583
13  KTITLEVESSDTIDN                   ≤            0
14  NSVPIMPTLPPRPYI                   =          128
15  IKKRNKIRLPSGSPE                   =           11

Where do the numbers come from? From the supplement of paper PMC4466140.
